- TEST_SYSTEM: T1, Unprocessed hMPV PreF trimer (human metapneumovirus, strain B2)
- T1 construct: also called Unprocessed hMPV WT PreF trimer; unprocessed hMPV PreF trimeric antigen
- PROTOCOL_DETAILS: BLI, mAb on anti-human Fc sensor
# Octet binding response values compiled below
# output: bare number, implied unit nm

For orientation, consider the following solved cases.
BINDER: M1A11 (antibody, V domains shown, IgG; also called MIA11) VH: QLQLQESGPGLVKPSETLSLTCTVSGDSISSSSFYWGWIRQPPGKGLEWIATIYYTGSTEYNPSLKSRISISVDTSMNQFSLRLRSVTAADTAVYYCARQEGSSWSNWFDPWGQGTLVTVSS VL: DIQMTQSPSSLSASVGDRVTITCRASQSISTYLNWYQQKPGKAPKLLIYVASSLQSGVPSRFSGSGSGTDFTLTISSLQPEDFATYYCQQGYSIPWTFGHGTKVEIK
Octet binding response (nm): 0.342
//
BINDER: M2F01 (antibody, V domains shown, IgG) VH: QVQLVQSGAEVKKPGASVKVSCKASEDTFTNYYMHWVRQAPGQGLEWMGIINPSGGSTDYAQKFQGRVTMTRDTSTSTVYMELSSLRSEDTAMYYCARQGRTAACDYWGQGTLVTVSS VL: DIQMTQSPSSVSASVGDRVTITCRASQGIRSWLAWYQQKPGKAPKLLIYAASTLQSGVPSRFSGSGSGTDFTLTISSLQPEDFATYYCQQSNSFSLFTFGPGTRVDIK
Octet binding response (nm): 0.335
//
BINDER: M3A04 (antibody, V domains shown, IgG) VH: QVQLVESGGGVVQPGRSLRLSCAASGLTFSTYVMHWVRQAPGKGLEWVAVISYDGTNEHYADSVKGRFTISRDNSKNTLYLQMNSLRPEDTAVYYCARGTADYDVWSGSAWGGFDYWGQGTLVTVSS VL: DIQMTQSPSSLSASVGDRVTITCRASQSISSYLNWYQQKPGKAPKLLMYTVSSLPSGVPSRFSGSGSGTDFTLTISSLQPEDFATYYCQQSYNIPYTFGQGTKLEIK
Octet binding response (nm): 0.373
//
BINDER: M3C01 (antibody, V domains shown, IgG) VH: QLQLQESGPGLVKPSETLSLTCTVSGGSISSSSYFWGWIRQPPGKGLEWIGSVFYSGSTYYNPSLKSRVTISVDTPKNQFSLRLSSVTAADTAVYYCARHSWDRWVYWGQGTLVTVSS VL: DIQMTQSPSSVSASVGDRVTITCRASQDISSWLAWYQQKPGKAPKLLIYAASSLQSGVPSRFSGSGSGTDFTLTISSLQPEDFATYYCQQANSFPLTFGGGTKVEIK
Octet binding response (nm): 0.0597

Which Octet binding response value belongs to M2A05 (antibody, V domains shown, IgG) VH: QITLKESGPTLVKPTQTLTLTCTVSGFSLSANSVGVAWFRQPPGKAPEWLGVIYWDDDKRFSPSLKTRLSITKDASTSQVVLRLTNVSPLDTATYYCVRKHYDLLQWGQGAPVTVSS VL: EIVLTQSPGTLSLSPGEGATLSCRASRSVNSDYIAWYQHKPGLAPRLLIYAASTRATDIPDRFRADVSGTDFTLTIDRLEPDDFAVYYCQQYGSAVWTFGQGTRVEVK ? 0.378

So what's the measured Octet binding response for this one? M1C7 (antibody, V domains shown, IgG; also called MIC7) VH: QVQLVESGGGLVQPGRSLRLSCAASGFTFSSYAMHWVRQAPGKGLEWVAIITYDGSGKYYADSLEGRITISRDDPKSMLYLHMRSLTAEDTAVYYCVKSGSFSSAFWLEDWGQGTLVTVSS VL: EIVLTQSPATLSLSPGERATLSCRASQSISNFVAWYQQKPGQAPRLLIYDASNGATGTPARFSGSGSGTDFTLTISSLEPEDFAVYYCQQRSTWTFGQGTKVEIKR 0.312

Look up Octet binding response: M4C03 (antibody, V domains shown, IgG) VH: EVQLVESGGTLVQPGGSLRLSCAASGFRFNAFSMNWVRQAPGKGLEWVSYIDSRSNIIYYADSVKGRFTISRDNAKTSLYLRMSSLRDEDTAVYYCAKALCVVNYDFWSGLLGCAMDVWGQGTTVTVSS VL: QSVLTQPPSVSGAPGQRVTISCTGTTSNIGAGFDVHWYQQVPGTAPKLLIYANTDRPSGVPDRFSASKSGTSASLAITGLQVEDEAHYYCQTYDTTLSGSTVFGGGTKLTVL 0.263

Requested read-out: Octet binding response. Entry: M3D10 (antibody, V domains shown, IgG) VH: QVQLQESGPGLVKPSETLSLTCTVSGGSVSTYYWTWIRQPPGKGLDWIGYIYHNGNINYNPSLKSRVTMSVDTSKNQFSLKLTSVTAADTALYYCATVSFIGYSLYYFDRWGQGTLVTVSS VL: DIQMTQSPSSLSASVGDRVTITCRASQNIASFLNWYQQRPGKAPDLLIYAASTLQTGVPSRFSGSGSGTDFTLAISSLQPEDFATYYCQQSYNTPFTFGQGTKLEIK 0.38

So what does the record say about Octet binding response for M2C10 (antibody, V domains shown, IgG) VH: QVQLVESGGGVVQPGRSLRLSCAASGFTFNNYAMHWVRQAPGKGLEWVALISDDGSKKYFADALKGRFTIFRDNSKNTLYLQMNSLRAEDTAVYYCARDPTPLGEYYFDYWGQGTLVTVSS VL: DIQMTQSPSSLSASVGDRVTITCRASQTISGYLNWYQQKPGKAPNLLIYTASSLESGVPSRFSGSGSETDFTLTISSLQPEDFATYYCQQSYRMPLTFGGGTRVSLK ? 0.382

Using the record for M2D2 (antibody, V domains shown, IgG) VH: QVQLVQSGAEVKKPGASVKVSCKASGYNFDNYYMSWVRQAPGQGLEWLGIIDPSGGRISYAPKFQGRVTLTRDTSTSTVYMELRGLRFEDTALYYCARLEATHEGPWGQGTLVTVSS VL: QSVLTQPPSASGTPGQRVTISCSGSNSNIGSSTVNWYQQLPGTAPKLLIYSDNHRPSGVPDRFSGSRSGTSASLVISGLHSEDEADYYCGTWDDGLNGPYVFGTGTKVTVL , report its Octet binding response. 0.362
